test system: human telomerease (HL60 cell extract); assay: Antitelomerease activity: extension of oligonucleotide TS followed by PCR amplification, with HL60 extract; assay type: biochemical; settings: read-out: TRAP IC50
Observable: pIC50
pIC50 (log units): -log10 of the concentration in mol/L.

[in] What does the record list as pIC50 for Cc1cc(N(C)C)c2cc(Nc3nc(NCCCN(C)C)nc(Nc4ccc5nc(C)cc(N(C)C)c5c4)n3)ccc2n1 [Example 1] ?
[out] 6.26

[in] Lookup Cc1cc(N(C)C)c2cc(Nc3nc(Nc4ccc5nc(C)cc(N(C)C)c5c4)nc(Oc4ccncc4)n3)ccc2n1 [Example 115]
[out] 6.30

[in] Lookup CCN(CCN(C)C)c1nc(Nc2ccc3nc(C)cc(N(C)C)c3c2)nc(Nc2ccc3nc(C)cc(N(C)C)c3c2)n1 [Example 146]
[out] 6.22

[in] Lookup COCCNc1nc(Nc2ccc3nc(C)cc(N)c3c2)nc(Nc2ccc3nc(C)cc(N)c3c2)n1 [Example 84]
[out] 5.66

[in] Lookup COCCOc1nc(Nc2ccc3nc(C)cc(N)c3c2)nc(Nc2ccc3nc(C)cc(N)c3c2)n1 [Example 112]
[out] 6.49

[in] Lookup Cc1cc(N)c2cc(Nc3nc(Nc4ccc5nc(C)cc(N)c5c4)nc(NC4CCN(Cc5ccccc5)C4)n3)ccc2n1 (stereo not shown) [Example 41]
[out] 6.44

Others:
[in] What does the record list as pIC50 for Cc1cc(N)c2cc(Nc3nc(Nc4ccc5nc(C)cc(N)c5c4)nc(Nc4cccc5ncccc45)n3)ccc2n1 [Example 95] ?
[out] 6.03
